Reference source for all entries: patent US6846660B2

target: aldehyde dehydrogenase (ADH) (Ketogulonicigenium vulgare); format: biochemical, Gluconobacter oxydans DSM No. 4025 (FERM BP-3812)
Decision: Relative activity beneath 70% gives satisfied; Relative activity meeting or exceeding 70% gives not satisfied.

INSERT INTO assay_data (compound, measurement_target, class_label) VALUES
  ('O=C(O)CI [Monoiodoacetate]', 'aldehyde dehydrogenase (ADH) (Ketogulonicigenium vulgare)', 'satisfied'),
  ('O.O.[Ca+2].[Cl-].[Cl-]', 'aldehyde dehydrogenase (ADH) (Ketogulonicigenium vulgare)', 'not satisfied'),
  ('O.O.O.O.O.O.[Cl-].[Cl-].[Co+2]', 'aldehyde dehydrogenase (ADH) (Ketogulonicigenium vulgare)', 'not satisfied');

q: Lab log: compare recorded Relative activity with 70%; is it strictly lower for "[N-]=[N+]=[N-].[Na+]" ?
a: not satisfied

q: Item "[Cl-].[Cl-].[Zn+2]" : Relative activity beneath 70%, strictly?
a: satisfied

q: Please let me know if O=S(=O)([O-])[O-].O=S(=O)([O-])[O-].O=S(=O)([O-])[O-].[Fe+3].[Fe+3] [Fe2(SO4)3.xH2O] shows Relative activity below 70%.
a: satisfied

q: Please check: Relative activity for "O=S(=O)([O-])[O-].[Cu+2]" , strictly under 70% or not?
a: satisfied

q: Relative activity strictly < 70% for this compound? "[Cl-].[Cl-].[Mg+2]"
a: not satisfied

q: # strict comparison: is reported Relative activity < 70%? input = "[F-].[Na+]"
a: not satisfied

q: Lab note: Relative activity threshold 70%. Does this compound come in strictly under it? "O.O.O.O.O.O.O=S(=O)([O-])[O-].[Ni+2]"
a: not satisfied

q: Please let me know if "[Cl][Ti]([Cl])([Cl])[Cl]" shows Relative activity below 70%.
a: not satisfied

---

molecular target: aldehyde dehydrogenase (ADH) (Ketogulonicigenium vulgare, UniProt Q402A8); test: Identification of the oxidation products; assay type: biochemical, Gluconobacter oxydans DSM No. 4025 (FERM BP-3812); settings: products of the oxidation of the substrates of Table 1A
Sequence (Q402A8 32-609): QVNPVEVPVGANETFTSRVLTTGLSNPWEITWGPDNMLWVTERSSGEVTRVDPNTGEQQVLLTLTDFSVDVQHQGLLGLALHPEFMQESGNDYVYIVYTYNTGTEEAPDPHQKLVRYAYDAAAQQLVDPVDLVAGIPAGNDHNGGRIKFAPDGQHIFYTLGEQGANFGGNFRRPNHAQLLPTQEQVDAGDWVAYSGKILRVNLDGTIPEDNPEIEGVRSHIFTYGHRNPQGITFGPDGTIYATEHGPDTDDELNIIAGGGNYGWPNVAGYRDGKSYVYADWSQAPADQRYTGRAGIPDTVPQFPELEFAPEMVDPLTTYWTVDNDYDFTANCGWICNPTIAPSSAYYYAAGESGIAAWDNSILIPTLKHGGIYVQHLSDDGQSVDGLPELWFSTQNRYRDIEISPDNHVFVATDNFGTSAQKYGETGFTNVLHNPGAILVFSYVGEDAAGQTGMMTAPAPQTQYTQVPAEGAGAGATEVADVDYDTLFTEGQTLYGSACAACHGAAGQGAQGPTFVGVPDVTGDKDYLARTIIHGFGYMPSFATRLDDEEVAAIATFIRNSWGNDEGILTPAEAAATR
test_readout: Product

INSERT INTO assay_data (structure, test_readout, test_result) VALUES
  ('O=CC(=O)[C@@H](O)[C@H](O)[C@@H](O)CO', 'Product', '2-KGA');

Now for the molecule whose Product we want.
q: // returns reported Product for input "O=CC(=O)[C@@H](O)[C@H](O)[C@H](O)CO"
a: 2-Keto-D-gluconic acid
